# tgt: SLC25A20_C283 (Homo sapiens)
# Construct: endogenous in cells; host or cells: 22Rv1
# Sequence (O43772 whole entry): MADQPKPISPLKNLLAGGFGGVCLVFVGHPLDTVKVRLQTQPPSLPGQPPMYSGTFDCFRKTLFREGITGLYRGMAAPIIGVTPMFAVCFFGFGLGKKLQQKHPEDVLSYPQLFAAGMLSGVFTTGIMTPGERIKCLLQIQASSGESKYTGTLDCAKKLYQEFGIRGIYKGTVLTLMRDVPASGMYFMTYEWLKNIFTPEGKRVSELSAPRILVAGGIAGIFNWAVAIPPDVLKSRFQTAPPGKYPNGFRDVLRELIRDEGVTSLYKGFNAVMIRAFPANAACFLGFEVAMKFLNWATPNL
# test protocol: IA-DTB cysteine engagement
# Assay type: binding
# experimental conditions: 22Rv1 cells, 20 μM probe, 1 h, relative to DMSO
readout kind: % engagement SLC25A20_C283 (%)

compound	% engagement SLC25A20_C283 (%)
C=CC(=O)N1C[C@H](c2ccc(Br)cc2)[C@H]1C(=O)Nc1cccc2cccnc12 [MY-3B]	−241
C=CC(=O)N1C[C@H](c2ccc(Br)cc2)[C@@H]1C(=O)Nc1cccc2cccnc12	92

A = C=CC(=O)N1C[C@H](c2ccc(Br)cc2)[C@H]1C(=O)Nc1cccc2cccnc12 [MY-3A]
B = C=CC(=O)N1C[C@@H](c2ccc(Br)cc2)[C@H]1C(=O)Nc1cccc2cccnc12
IN: Short answer wanted: higher % engagement SLC25A20_C283, A or B ? Your choice should be expressed through its label.
OUT: A
(A: 66%, B: 37%)
